molecular target: HSPDE4A4-EGFP (Homo sapiens); assay: Reappearance of spots after removal of Rolipram (salt/chill or ambient conditions), HSPDE4A4-EGFP CHO cells; conditions: ambient conditions 4 hours; read-out: IC50 against the reappearance of spots
Sequence (P27815 whole entry): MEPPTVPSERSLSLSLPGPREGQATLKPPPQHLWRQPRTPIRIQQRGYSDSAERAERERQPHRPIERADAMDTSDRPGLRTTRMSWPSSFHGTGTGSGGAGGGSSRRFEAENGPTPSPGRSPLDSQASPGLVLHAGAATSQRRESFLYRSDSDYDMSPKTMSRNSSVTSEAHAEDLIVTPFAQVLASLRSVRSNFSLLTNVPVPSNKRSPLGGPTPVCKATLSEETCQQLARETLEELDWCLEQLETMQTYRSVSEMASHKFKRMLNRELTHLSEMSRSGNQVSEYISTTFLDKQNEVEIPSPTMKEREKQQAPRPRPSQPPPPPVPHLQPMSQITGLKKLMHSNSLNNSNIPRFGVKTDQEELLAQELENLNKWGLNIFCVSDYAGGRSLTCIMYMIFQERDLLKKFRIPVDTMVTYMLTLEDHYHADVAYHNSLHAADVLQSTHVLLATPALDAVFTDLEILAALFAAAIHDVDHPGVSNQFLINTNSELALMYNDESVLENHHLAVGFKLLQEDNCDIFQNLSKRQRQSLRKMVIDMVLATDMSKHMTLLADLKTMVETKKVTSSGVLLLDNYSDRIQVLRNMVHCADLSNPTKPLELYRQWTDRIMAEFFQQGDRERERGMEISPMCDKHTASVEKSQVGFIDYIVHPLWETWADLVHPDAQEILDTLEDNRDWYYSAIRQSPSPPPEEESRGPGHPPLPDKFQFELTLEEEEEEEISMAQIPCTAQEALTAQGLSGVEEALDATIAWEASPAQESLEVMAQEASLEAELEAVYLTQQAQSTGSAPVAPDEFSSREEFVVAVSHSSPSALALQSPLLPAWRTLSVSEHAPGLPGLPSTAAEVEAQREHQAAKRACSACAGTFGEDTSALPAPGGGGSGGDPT
metric-name: IC50 (µM)
Give the quantity in µM, number only.

Ask: Quick one: IC50 of O=C1CCC(N2C(=O)c3ccccc3C2=O)C(=O)N1 (stereo not shown) [thalidomide] ?
Result: 33
